biological target: HLA-A^*11:01 (Homo sapiens, UniProt P04439, A114D/D185E/E176A/F33Y/L180Q/S129P/T187R); assay: Peptide competitive binding assay (FITC-labeled reference peptide KVFPKALINK, flow cytometry) in HMy2.CIR cells expressing HLA-A^*11:01; conditions: bracketed from 5 and 15 μM inhibition, 24 h, 4°C
Ends that are not written are not given here.
MEASURE: IC50

So what does the record say about IC50 for ALQRREVYK [ALQRREVYK] ?
5 to 15 µM
